# condition.notes: in ethanol, 318.15 K
quantity.name: solubility (mole fraction)

[[record]]
smiles_str = "COc1ccc(C(=O)O)c(OC)c1"
value = 0.0507


###

# condition.notes: in n-butanol, 298.15 K
quantity.name: solubility (mole fraction)

[[record]]
smiles_str = "COc1ccc(C(=O)O)c(OC)c1"
value = 0.0146


###

# condition.notes: in isobutanol, 313.15 K
quantity.name: solubility (mole fraction)

[[record]]
smiles_str = "COc1ccc(C(=O)O)c(OC)c1"
value = 0.0239


###

# condition.notes: in ethanol, 293.15 K
quantity.name: solubility (mole fraction)

[[record]]
smiles_str = "COc1ccc(C(=O)O)c(OC)c1"
value = 0.0149

